B1: KLHL14 (parent)
chain: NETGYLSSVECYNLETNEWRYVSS

# Variants of: B1
# measurementDescription: protein stability index of a GFP-peptide fusion (GPS, HEK-293T) (PSI 1-6); higher = more stable;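 also: lentivirally expressed fusions sorted by FACS into six bins by GFP to DsRed ratio, PSI derived from sequencing read proportions per bin multiplied by bin number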
# testSettings: c terminus: a fixed tail appended

mutationKey	protein stability index
S7K	2.96
G4D	4
E18F	3.41
Y12G	3.76
N17C	2.84
Y12I	2.95
L14V	3.41
E18D	3.72
W19E	4.97
G4I	2.34
G4P	3.92
S8L	2.77
G4C	1.98
Y5R	3.2
V9S	3.87
S23C	3.22
C11K	3.58
V22G	3.85
E2N	2.78
E18W	2.15
V22D	3.8
L6G	3.62

src = the supplement of paper PMC10567573
